Values were extracted from patent US20180220653A1.

Molecular target: Nan
Conditions: Nan-only expressing membranes; FIG. 9B; read-out: Ki, displacement assay
measure: Ki (nM)
State just the number; it will be interpreted in nM.

Dear colleague, please send me the reported Ki for C[C@]1(COC(=O)C2CC2)[C@@H]2C[C@H](O)[C@@]3(C)Oc4cc(-c5cccnc5)oc(=O)c4[C@H](O)[C@@H]3[C@@]2(C)CC[C@@H]1OC(=O)C1CC1 when you can. 3.1

---

Target: insect TRPV channels, Nan and Iav (Drosophila melanogaster, UniProt M9PI57+Q9W3W0)
Sequence (M9PI57 1-834): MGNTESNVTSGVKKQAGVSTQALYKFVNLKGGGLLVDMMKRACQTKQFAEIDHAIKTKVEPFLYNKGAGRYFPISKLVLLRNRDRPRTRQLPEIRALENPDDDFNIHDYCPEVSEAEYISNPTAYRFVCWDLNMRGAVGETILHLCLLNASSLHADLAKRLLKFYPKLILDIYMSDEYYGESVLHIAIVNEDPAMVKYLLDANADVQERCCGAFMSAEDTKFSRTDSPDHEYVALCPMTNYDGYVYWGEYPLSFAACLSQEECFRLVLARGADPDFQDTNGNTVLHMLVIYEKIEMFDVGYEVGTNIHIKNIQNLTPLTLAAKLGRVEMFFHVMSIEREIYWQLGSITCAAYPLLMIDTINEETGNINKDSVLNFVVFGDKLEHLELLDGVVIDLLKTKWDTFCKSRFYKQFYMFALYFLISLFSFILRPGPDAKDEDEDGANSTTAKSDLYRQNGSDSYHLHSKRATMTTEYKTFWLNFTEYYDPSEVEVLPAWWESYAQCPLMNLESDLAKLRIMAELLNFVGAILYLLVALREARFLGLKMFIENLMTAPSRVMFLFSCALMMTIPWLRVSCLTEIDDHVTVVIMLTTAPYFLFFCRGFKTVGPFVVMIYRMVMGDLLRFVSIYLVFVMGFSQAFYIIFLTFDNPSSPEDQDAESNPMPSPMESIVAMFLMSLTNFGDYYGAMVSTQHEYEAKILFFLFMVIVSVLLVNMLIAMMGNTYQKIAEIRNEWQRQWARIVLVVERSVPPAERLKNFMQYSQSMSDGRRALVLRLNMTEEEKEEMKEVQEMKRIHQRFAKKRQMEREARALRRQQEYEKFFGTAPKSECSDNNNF
Sequence (Q9W3W0 1-1123): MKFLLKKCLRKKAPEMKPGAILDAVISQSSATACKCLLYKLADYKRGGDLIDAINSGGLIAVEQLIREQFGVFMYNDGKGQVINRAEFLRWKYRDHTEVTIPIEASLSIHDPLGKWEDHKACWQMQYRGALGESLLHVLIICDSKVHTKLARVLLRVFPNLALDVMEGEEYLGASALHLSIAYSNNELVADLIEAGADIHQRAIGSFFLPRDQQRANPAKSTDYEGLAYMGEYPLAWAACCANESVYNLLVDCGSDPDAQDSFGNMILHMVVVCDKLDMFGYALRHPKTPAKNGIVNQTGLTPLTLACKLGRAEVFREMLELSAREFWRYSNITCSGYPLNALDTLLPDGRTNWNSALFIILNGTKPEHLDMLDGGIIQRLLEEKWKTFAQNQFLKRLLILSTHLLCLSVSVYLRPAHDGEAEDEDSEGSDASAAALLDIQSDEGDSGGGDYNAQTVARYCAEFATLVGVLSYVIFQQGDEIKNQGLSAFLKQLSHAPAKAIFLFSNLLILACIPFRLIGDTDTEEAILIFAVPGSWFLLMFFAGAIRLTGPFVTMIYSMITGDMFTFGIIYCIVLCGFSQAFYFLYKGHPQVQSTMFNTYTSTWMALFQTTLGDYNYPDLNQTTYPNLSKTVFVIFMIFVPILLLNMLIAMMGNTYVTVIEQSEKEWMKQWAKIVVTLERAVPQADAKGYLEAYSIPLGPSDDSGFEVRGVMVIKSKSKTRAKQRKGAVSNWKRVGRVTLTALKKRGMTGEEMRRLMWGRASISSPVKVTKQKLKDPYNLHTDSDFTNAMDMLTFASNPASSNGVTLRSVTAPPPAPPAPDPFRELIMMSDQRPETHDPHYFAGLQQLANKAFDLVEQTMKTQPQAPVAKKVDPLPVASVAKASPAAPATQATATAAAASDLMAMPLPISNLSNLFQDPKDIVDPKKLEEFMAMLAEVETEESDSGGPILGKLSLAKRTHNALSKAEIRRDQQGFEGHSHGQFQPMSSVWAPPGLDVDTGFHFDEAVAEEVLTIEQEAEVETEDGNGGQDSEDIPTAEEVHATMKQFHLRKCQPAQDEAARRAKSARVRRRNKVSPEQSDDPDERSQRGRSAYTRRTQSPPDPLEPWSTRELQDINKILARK
Details: read-out: half-maximal effective concentrations (EC50), calcium mobilization; CHO cells co-expressing Nan and Iav; FIG. 5
measure: EC50 (nM)
Lab book: enter the figure in nM, no units written.

# return recorded EC50 for entry C[C@]1(COC(=O)C2CC2)[C@@H]2C[C@H](O)[C@@]3(C)Oc4cc(-c5cccnc5)oc(=O)c4[C@H](O)[C@@H]3[C@@]2(C)CC[C@@H]1OC(=O)C1CC1 [afidopyropen] 1

Supply measured EC50 of O=C1Nc2ccc(C(F)(C(F)(F)F)C(F)(F)F)cc2CN1NCc1cccnc1 [N-deacetylated pyrifluquinazon] in your reply. 64
